Organism: Rattus norvegicus
procedure.text: Open TG-GATES - Regimen: Daily Repeat
Assay type: toxicity, organism-based, Sprague-Dawley
Set-up: regimen Daily Repeat, gender Male, age 6 weeks
experimental.conditions: in vivo, po, 0 mg/kg, […], tissue Blood, route gavage, dose level Control, time 7 day
Cut-off 100 x10_2/uL on WBC, inclusive. At or above means condition met; below means condition not met.

These solved cases illustrate the format of a correct answer.
molecule: CS(=O)(=O)Nc1ccc([N+](=O)[O-])cc1Oc1ccccc1 [NIMESULIDE]
group.label: condition met

molecule: C=CCO
group.label: condition met

molecule: COc1ccc(O)c(C(C)(C)C)c1.COc1ccc(O)cc1C(C)(C)C [BUTYLATED HYDROXYANISOLE]
group.label: condition not met

molecule: Cn1c(=O)c2c(ncn2C)n(C)c1=O
group.label: condition met

molecule: COc1ccc(Cl)cc1C(=O)NCCc1ccc(S(=O)(=O)NC(=O)NC2CCCCC2)cc1 [GLYBURIDE]
group.label: condition met

molecule: O=P1(N(CCCl)CCCl)NCCCO1 (stereo not given) [CYCLOPHOSPHAMIDE ANHYDROUS]
group.label: condition met

molecule: Cc1cccc(Nc2cc(Cl)nc(SCC(=O)O)n2)c1C
group.label: condition not met

molecule: O=C1CN(/N=C/c2ccc(-c3ccc([N+](=O)[O-])cc3)o2)C(O)=N1
group.label: condition met

molecule: Cn1cnc([N+](=O)[O-])c1Sc1ncnc2nc[nH]c12
group.label: condition met

[in] # check: WBC of "O=C1NC(=O)C(c2ccccc2)(c2ccccc2)N1" is greater than or equal to 100 x10_2/uL
[out] condition met

----------
Organism: Rattus norvegicus
procedure.text: Open TG-GATES - Regimen: Single
Assay type: toxicity, organism-based, Sprague-Dawley
Parameters: regimen Single, gender Male, age 6 weeks
experimental.conditions: in vivo, po, 0 mg/kg, 9 h, tissue Plasma, route gavage, dose level Control
Cut-off 30 IU/L on ALT, inclusive. At or above means y; below means n.

compound: C=CCO
group.label: n
--
compound: Cn1cnc([N+](=O)[O-])c1Sc1ncnc2nc[nH]c12
group.label: y
--
compound: CS(=O)(=O)Nc1ccc([N+](=O)[O-])cc1Oc1ccccc1 [NIMESULIDE]
group.label: y
--
compound: O=C1CN(/N=C/c2ccc(-c3ccc([N+](=O)[O-])cc3)o2)C(O)=N1
group.label: y
--
compound: Cc1cccc(Nc2cc(Cl)nc(SCC(=O)O)n2)c1C
group.label: y
--
compound: S=C=Nc1cccc2ccccc12 [1-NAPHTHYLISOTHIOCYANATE]
group.label: n

Proceed to the following item.
[in] # check: ALT of CNCCC(Oc1ccc(C(F)(F)F)cc1)c1ccccc1.Cl (stereo unspecified) [FLUOXETINE HYDROCHLORIDE] is greater than or equal to 30 IU/L
[out] n

----------
Species on record: Rattus norvegicus
procedure.text: Open TG-GATES - Regimen: Daily Repeat
Assay type: toxicity, organism-based, Sprague-Dawley
Parameters: regimen Daily Repeat, gender Male, age 6 weeks
experimental.conditions: in vivo, po, 0 mg/kg, […], tissue Plasma, route gavage, dose level Control, time 28 day
measured.quantity: CRE (mg/dL)
The reply should contain only the number, in mg/dL.

molecule: Cn1c(=O)c2c(ncn2C)n(C)c1=O
unit.of.measure: mg/dL
CRE: 0.2

molecule: Cn1cnc([N+](=O)[O-])c1Sc1ncnc2nc[nH]c12
unit.of.measure: mg/dL
CRE: 0.2

molecule: C=CCO
unit.of.measure: mg/dL
CRE: 0.5

Next up:
[in] Given the molecule CS(=O)(=O)Nc1ccc([N+](=O)[O-])cc1Oc1ccccc1 [NIMESULIDE] , what is its reported CRE?
[out] 0.6

----------
Species: Rattus norvegicus
procedure.text: Open TG-GATES - Regimen: Daily Repeat
Format: toxicity, organism-based, Sprague-Dawley
Parameters: regimen Daily Repeat, gender Male, age 6 weeks
experimental.conditions: in vivo, po, 0 mg/kg, […], tissue Kidney, route gavage, dose level Control, time 7 day
Measured KIDNEY_L, listed per entry for reference.
The reply should contain only the number, in g.

compound: Cc1cccc(Nc2cc(Cl)nc(SCC(=O)O)n2)c1C
KIDNEY_L / g: 1.1
//
compound: COc1ccc(O)c(C(C)(C)C)c1.COc1ccc(O)cc1C(C)(C)C [BUTYLATED HYDROXYANISOLE]
KIDNEY_L / g: 1
//
compound: Cc1cnc(NC(=O)C2=C(O)c3ccccc3S(=O)(=O)N2C)s1
KIDNEY_L / g: 1.2

[in] Given the compound COc1ccc(Cl)cc1C(=O)NCCc1ccc(S(=O)(=O)NC(=O)NC2CCCCC2)cc1 [GLYBURIDE] , what is its reported KIDNEY_L?
[out] 1.2

[in] // next record O=P1(N(CCCl)CCCl)NCCCO1 (stereo unspecified) [CYCLOPHOSPHAMIDE ANHYDROUS]
[out] 1.1

[in] // next record "O=C1NC(=O)C(c2ccccc2)(c2ccccc2)N1"
[out] 1

[in] // next record "Cn1c(=O)c2c(ncn2C)n(C)c1=O"
[out] 1.1

[in] // next record "O=C1CN(/N=C/c2ccc(-c3ccc([N+](=O)[O-])cc3)o2)C(O)=N1"
[out] 1.2

[in] // next record "Cn1cnc([N+](=O)[O-])c1Sc1ncnc2nc[nH]c12"
[out] 1

[in] // next record CS(=O)(=O)Nc1ccc([N+](=O)[O-])cc1Oc1ccccc1 [NIMESULIDE]
[out] 1.1

[in] // next record "C=CCO"
[out] 1.1

----------
Species: Rattus norvegicus
procedure.text: Open TG-GATES - Regimen: Daily Repeat
Format: toxicity, organism-based, Sprague-Dawley
Parameters: regimen Daily Repeat, gender Male, age 6 weeks
experimental.conditions: in vivo, po, 0 mg/kg, 72 h, tissue Blood, route gavage, dose level Control, time 3 day
Measured Ht, listed per entry for reference.
The reply should contain only the number, in %.

[in] Given the compound "Cn1cnc([N+](=O)[O-])c1Sc1ncnc2nc[nH]c12" , what is its reported Ht?
[out] 39.8

[in] // next record CS(=O)(=O)Nc1ccc([N+](=O)[O-])cc1Oc1ccccc1 [NIMESULIDE]
[out] 39.9

[in] // next record COc1ccc(O)c(C(C)(C)C)c1.COc1ccc(O)cc1C(C)(C)C [BUTYLATED HYDROXYANISOLE]
[out] 38

[in] // next record "Cc1cccc(Nc2cc(Cl)nc(SCC(=O)O)n2)c1C"
[out] 39.4

----------
Measured gamma-GTP, listed per entry for reference.
Species on record: Rattus norvegicus
procedure.text: Open TG-GATES - Regimen: Single
Type: toxicity, organism-based, Sprague-Dawley
Design: regimen Single, gender Male, age 6 weeks
experimental.conditions: in vivo, po, 0 mg/kg, 6 h, tissue Plasma, route gavage, dose level Control
The reply should contain only the number, in IU/L.

molecule: Cc1cccc(Nc2cc(Cl)nc(SCC(=O)O)n2)c1C
unit.of.measure: IU/L
gamma-GTP: 1.2
--
molecule: Cn1cnc([N+](=O)[O-])c1Sc1ncnc2nc[nH]c12
unit.of.measure: IU/L
gamma-GTP: 1
--
molecule: CS(=O)(=O)Nc1ccc([N+](=O)[O-])cc1Oc1ccccc1 [NIMESULIDE]
unit.of.measure: IU/L
gamma-GTP: 2
--
molecule: COc1ccc(Cl)cc1C(=O)NCCc1ccc(S(=O)(=O)NC(=O)NC2CCCCC2)cc1 [GLYBURIDE]
unit.of.measure: IU/L
gamma-GTP: 1
--
molecule: O=C1CN(/N=C/c2ccc(-c3ccc([N+](=O)[O-])cc3)o2)C(O)=N1
unit.of.measure: IU/L
gamma-GTP: 1.2
--
molecule: COc1ccc(O)c(C(C)(C)C)c1.COc1ccc(O)cc1C(C)(C)C [BUTYLATED HYDROXYANISOLE]
unit.of.measure: IU/L
gamma-GTP: 1.2
--
molecule: O=C1NC(=O)C(c2ccccc2)(c2ccccc2)N1
unit.of.measure: IU/L
gamma-GTP: 1.4
--
molecule: Cc1cnc(NC(=O)C2=C(O)c3ccccc3S(=O)(=O)N2C)s1
unit.of.measure: IU/L
gamma-GTP: 0.8

[in] Given the molecule S=C=Nc1cccc2ccccc12 [1-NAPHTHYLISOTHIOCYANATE] , what is its reported gamma-GTP?
[out] 1

[in] // next record CNCCC(Oc1ccc(C(F)(F)F)cc1)c1ccccc1.Cl (configuration not stated) [FLUOXETINE HYDROCHLORIDE]
[out] 1

[in] // next record O=P1(N(CCCl)CCCl)NCCCO1 (configuration not stated) [CYCLOPHOSPHAMIDE ANHYDROUS]
[out] 1

[in] // next record "C=CCO"
[out] 1

----------
Species: Rattus norvegicus
procedure.text: Open TG-GATES - Regimen: Daily Repeat
Type: toxicity, organism-based, Sprague-Dawley
Parameters: regimen Daily Repeat, gender Male, age 6 weeks
experimental.conditions: in vivo, po, 0 mg/kg, […], tissue Blood, route gavage, dose level Control, time 7 day
measured.quantity: MCV (fL)
The reply should contain only the number, in fL.

[in] Given the compound CS(=O)(=O)Nc1ccc([N+](=O)[O-])cc1Oc1ccccc1 [NIMESULIDE] , what is its reported MCV?
[out] 64.8

[in] // next record "O=C1NC(=O)C(c2ccccc2)(c2ccccc2)N1"
[out] 62.4

[in] // next record O=P1(N(CCCl)CCCl)NCCCO1 (stereo not given) [CYCLOPHOSPHAMIDE ANHYDROUS]
[out] 62.7

[in] // next record COc1ccc(Cl)cc1C(=O)NCCc1ccc(S(=O)(=O)NC(=O)NC2CCCCC2)cc1 [GLYBURIDE]
[out] 63

[in] // next record "Cn1c(=O)c2c(ncn2C)n(C)c1=O"
[out] 63.2

Sourced from ChEMBL document CHEMBL3885861
